Reported kon values are given for each entry in this list.
# target.desc: T1, ROR1 antigen (UniProt Q01973 30-403, limits assumed)
# T1 construct: construct not described
# protocol.notes: BLI (Octet RED96e), antibody on sensor, ROR1 antigen from 100 nM in 2-fold dilutions
Lab book: enter the figure in M⁻¹ s⁻¹, no units written.

1) humanized antibody hu17-H2L1 (antibody, human IgG1, kappa, L234A L235A, V domains shown) VH: EVTLKESGPTLVKPTQTLTLTCSFSGFSLSTSGMGVAWIRQPPGKALEWLAHIWWDDDKRYNPALKSRLTITKDTSKNQVVLTITNVDPVDTATYYCARPQFITTVVAFYWYFDVWGQGTTVTVSS VL: DILLTQSPSSLSVSVGDRVTITCRASENIYSNLAWYQQKPGKAPKLLVYAATNLADGVPSRFSGSGSGTQYTLTISSLQPEDFATYYCQHFWGTPWTFGGGTKLEIKR : 814000
2) murine antibody 17-F12-G8-A6 (antibody, V domains shown) VH: EVTLKESGPGILQPSQTLSLTCSFSGFSLSTSGMGVAWIRQPSGKGLEWLAHIWWDDDKRYNPALKSRLTISKDTSSNQVFLKIASVDTADTATYYCARPQFITTVVAFYWYFDVWGAGTTVTVSS VL: DILLTQSPASLSVSMGETVTITCRASENIYSNLAWYQQKQGKSPQLLVYAATNLADGVPSRFSGSGSGTQYSLKINSLQSEDFGSYYCQHFWGTPWTFGGGTKLEIK : 708000
3) humanized antibody hu17-H3L1 (antibody, human IgG1, kappa, L234A L235A, V domains shown) VH: QVTLKESGPTLVKPTQTLTLTCSFSGFSLSTSGMGVAWIRQPPGKALEWLAHIWWDDDKRYNPSLKSRLTITKDTSKNQVVLTMTNMDPVDTATYYCARPQFITTVVAFYWYFDVWGQGTTVTVSS VL: DILLTQSPSSLSVSVGDRVTITCRASENIYSNLAWYQQKPGKAPKLLVYAATNLADGVPSRFSGSGSGTQYTLTISSLQPEDFATYYCQHFWGTPWTFGGGTKLEIKR : 859000

Now look at this entry.
What value of kon has been reported for the following binder? humanized antibody hu17-H4L1 (antibody, human IgG1, kappa, L234A L235A, V domains shown) VH: QVTLKESGPTLVKPTQTLTLTCTFSGFSLSTSGMGVAWIRQPPGKALEWLAHIWWDDDKRYGPSLKSRLTITKDTSKNQVVLTMTNMDPVDTATYYCARPQFITTVVAFYWYFDVWGQGTTVTVSS VL: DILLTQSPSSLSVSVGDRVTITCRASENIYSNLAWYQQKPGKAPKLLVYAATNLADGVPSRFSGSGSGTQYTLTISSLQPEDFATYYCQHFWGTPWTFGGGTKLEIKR
738000
